assay: Inhibition of baker's yeast alpha-glucosidase preincubated for 10 mins followed by PNPG addition measured after 30 mins; design: species or system Saccharomyces cerevisiae
readout: IC50 (µM)

Reference set (5 entries):
querySmiles: C/C(=N\Nc1nc(-c2cccc(Cl)c2)cs1)c1ccccn1
IC50 / µM: 5.5

querySmiles: C/C(=N\Nc1nc(-c2ccc(Br)cc2)cs1)c1ccccn1
IC50 / µM: 41.6

querySmiles: N#Cc1ccc(-c2csc(N/N=C/c3cccnc3)n2)cc1
IC50 / µM: 61.6

querySmiles: NC(=S)N/N=C/c1cccnc1
IC50 / µM: 120

querySmiles: C(=N\Nc1nc(-c2ccccc2)cs1)/c1cccnc1
IC50 / µM: 177

P. C/C(=N\Nc1nc(-c2cccc(Br)c2)cs1)c1ccccn1
Q. Oc1cccc(-c2csc(N/N=C/c3cccnc3)n2)c1
R. C/C(=N\Nc1nc(-c2cccc(O)c2)cs1)c1ccccn1
S. C/C(=N\NC(N)=S)c1ccccn1
[Q] // sort entries: IC50, high to low Put the labels in the requested order and list them out.
[A] S, P, Q, R
(S: 121 µM, P: 54.4 µM, Q: 13.4 µM, R: 6.4 µM)

a. C/C(=N\Nc1nc(-c2cccc([N+](=O)[O-])c2)cs1)c1ccccn1
b. O=[N+]([O-])c1cccc(-c2csc(N/N=C/c3cccnc3)n2)c1
[Q] Given a and given b , which shows the smaller recorded IC50? When you have decided, please share the label of that item.
[A] a
(a: 13.1 µM, b: 23.5 µM)
